target: Aminopeptidase N (Plasmodium falciparum (isolate 3D7)); test: malaria alanyl aminopeptidase activity blockers – biochemical, fluorogenic H-Leu-NHMec substrate, 1536-well (AID 1445); details: recombinant M1AAP, H-Leu-NHMec fluorogenic kinetic assay; at 30 µM, hits give high values unless noted;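 also: plate controls were DMSO full reaction for no effect and no enzyme background for full effect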
Out of some 220,000 compounds screened, about 910 (0.41%) were called active. This excerpt belongs to a sample that is enriched for actives. Results with a measured potency or affinity are listed apart.
Here, each record is paired with measured inhibition data.
# unit: % | format: bare number

Consider the worked cases shown below.
compound	system.name	inhibition (%)
Cc1ccc(C(NC(=O)N2CCN(C)CC2)C(Cl)Cl)cc1F (configuration not stated)	Aminopeptidase N (Plasmodium falciparum (isolate 3D7))	0.01
COc1cc(C(=S)N2CCOCC2)ccc1OC(=O)c1cc([N+](=O)[O-])cc([N+](=O)[O-])c1	Aminopeptidase N (Plasmodium falciparum (isolate 3D7))	4.71
C/C(=N/NC(=O)CCc1c(C)n[nH]c1C)c1cccc([N+](=O)[O-])c1	Aminopeptidase N (Plasmodium falciparum (isolate 3D7))	0.36

Request: inhibition, test system Aminopeptidase N (Plasmodium falciparum (isolate 3D7)), entry `COc1ccccc1NS(=O)(=O)c1ccc(N/N=C/c2ccccc2OCC(=O)O)c([N+](=O)[O-])c1`
13.1

Request: inhibition, test system Aminopeptidase N (Plasmodium falciparum (isolate 3D7)), entry `O=C(OCC(=O)N1CCc2ccccc21)c1nc(Cl)ccc1Cl`
0.15

Request: inhibition, test system Aminopeptidase N (Plasmodium falciparum (isolate 3D7)), entry `Cc1cccc(C)c1-n1c(C)cc(/C=N/NC(=O)CSc2ncccn2)c1C`
4.32

Request: inhibition, test system Aminopeptidase N (Plasmodium falciparum (isolate 3D7)), entry `Cc1ccc(OCC(=O)N2CCN(c3nnc(-c4ccc(C)cc4)c4ccccc34)CC2)cc1`
14.1

Request: inhibition, test system Aminopeptidase N (Plasmodium falciparum (isolate 3D7)), entry `O=C(/C=C\Nc1ccc2c(c1)OCO2)c1ccc(Cl)s1`
3.02

Request: inhibition, test system Aminopeptidase N (Plasmodium falciparum (isolate 3D7)), entry `O=C(O)C1CCN(C(=O)CSc2nc3ccccc3s2)CC1`
-1.91

Request: inhibition, test system Aminopeptidase N (Plasmodium falciparum (isolate 3D7)), entry `CCOC(=O)c1ccc(NC(=O)CSc2nc3ncccc3[nH]2)cc1`
15.1

Request: inhibition, test system Aminopeptidase N (Plasmodium falciparum (isolate 3D7)), entry `CC1(CC(=O)N/N=C/c2cc3c(cc2Br)OCO3)OCCO1`
9.79

Request: inhibition, test system Aminopeptidase N (Plasmodium falciparum (isolate 3D7)), entry Cc1ccc(CN2CCN(C3CSCCSC3)CC2CCO)cc1 (configuration not stated)
-1.96
